- System: SF-268 CNS
- EXPERIMENT DESCRIPTION: NCI-60 one-dose screen, 48 h (100 = growth as untreated, 0 = no growth, -100 = all killed)
- CONDITION: 10 µM unless noted
- Protocol: Cells are grown in 96 well plates and exposed to the test compound for 48 hours. Compounds are tested at a single concentration, which is 10^-5 M for most compounds. The reported endpoint is percent growth (GI% or GIPRCNT), where numbers from 0 - 100% represent growth inhibition, and numbers from -100% - 0 represent cell death. For example, a value of 40 represents 60% growth inhibition. A value of 0 means no net growth occurred over the course of the experiment. […]
About 83,000 compounds went through this panel and 20% of them were active in at least one assay; those are over-represented in the sample as a whole.
VALUE KIND: growth (%)
I only need the number, in %, no unit after it.

Q. Which growth value belongs to CCNC(=O)Oc1ccc(/C(=C(/C)c2ccccc2)c2ccc(OCCN3CCCCCC3)cc2)cc1 ?
A. 31.8

Q. Which growth value belongs to Cc1cccc2c3c(sc12)C(c1ccc(F)cc1)C(C#N)=C(/N=C/c1ccc(Cl)cc1)O3 (stereo not given) ?
A. 41.5

Q. Which growth value belongs to O=C1CCCC2=C1C(c1c[nH]c3ccc(Br)cc13)Cc1cc(Br)ccc1N2 (stereo not given) ?
A. 51.8

Q. Which growth value belongs to N#Cc1cccc(CN2CCC3=C(C2)C(=O)N(Cc2ccc(Cl)cc2)C2=NCCN23)c1 ?
A. 36

Q. Which growth value belongs to COC(=O)C[Se]C(=O)Cc1c(C)n(C(=O)c2ccc(Cl)cc2)c2ccc(OC)cc12 ?
A. 40.7

====

- System: OVCAR-5 ovarian
- EXPERIMENT DESCRIPTION: NCI-60 one-dose screen, 48 h (100 = growth as untreated, 0 = no growth, -100 = all killed)
- CONDITION: 10 µM unless noted
This is part of a sample that, as a whole, favours compounds with a hit. Of some 83,000 tested, about 20% had one in any assay.
VALUE KIND: growth (%)
I only need the number, in %, no unit after it.

Q. What is its growth for OVCAR-5 ovarian? Entry: CCCCCc1ccc(S(=O)(=O)Nc2cccc(-c3csc(NC(=O)CN4CCN(CCO)CC4)n3)c2)cc1
A. 101

Q. What is its growth for OVCAR-5 ovarian? Entry: CNC(=O)c1cc(-c2ccc(NC(=S)Nc3cc(C(F)(F)F)cc(C(F)(F)F)c3)cc2)nc2cccnc12
A. 102

Q. What is its growth for OVCAR-5 ovarian? Entry: Cn1ccnc1C(=O)/C=C/c1ccc(CNC(=O)c2c(F)c(F)c(F)c(F)c2F)cc1
A. 94.9

Q. What is its growth for OVCAR-5 ovarian? Entry: COc1ccc(-n2c(SCc3nnc(NC(=O)c4ccc(Br)cc4)s3)nc3cc(OC)c(OC)cc3c2=O)cc1
A. 95.5

Q. What is its growth for OVCAR-5 ovarian? Entry: NS(=O)(=O)c1ccc(-n2cc(CN3CCNCC3)nn2)cc1
A. 106

====

- System: LOX IMVI melanoma
- EXPERIMENT DESCRIPTION: NCI-60 one-dose screen, 48 h (100 = growth as untreated, 0 = no growth, -100 = all killed)
- CONDITION: 10 µM unless noted
The panel holds about 83,000 compounds, 20% with a hit somewhere; the sample as a whole holds those more often.
VALUE KIND: growth (%)
I only need the number, in %, no unit after it.

Q. Which growth value belongs to Nc1ncc(-c2ccc3ncnc(N4CCc5cc(F)c(F)cc54)c3c2)cn1 ?
A. 11.1

Q. Which growth value belongs to CC[C@]12C=CCN3CC[C@@]4(c5cc(NC(=O)COc6cc(O)c7c(=O)cc(-c8ccccc8)oc7c6)c(OC)cc5N(C)[C@H]4[C@@](O)(C(=O)OC)[C@@H]1OC(C)=O)[C@@H]32 ?
A. -93.2

Q. Which growth value belongs to Nc1nc(N)c2c(n1)NC(c1ccc(Cl)cc1)CC(c1ccc(Nc3nc(NCCO)nc(N4CCOCC4)n3)cc1)=N2 (stereo unspecified) ?
A. 61.2

Q. Which growth value belongs to COc1ccc(/C=N/NC2=NC3C(S2)N(C)C(=O)N3C)cc1 (stereo unspecified) ?
A. 32.7

Q. Which growth value belongs to CNC(=O)c1cc(N2CCc3cc(NC(=O)Nc4ccc(Cl)c(C(F)(F)F)c4)ccc32)ccn1 ?
A. 64.7

Q. Which growth value belongs to CC1=NC2=NC(=O)/C(=C3/N=C(C)C=C(c4ccccc4)N3N)NN2C(c2ccccc2)=C1 ?
A. 102

Q. Which growth value belongs to COc1cc(-c2nnc(SCc3ccc(O)c4ncccc34)n2-c2ccccc2)cc(OC)c1OC ?
A. -22.2

Q. Which growth value belongs to O=C1CCCc2nc(Nc3ccc(S(=O)(=O)Nc4ccc([N+](=O)[O-])cc4)cc3)ncc21 ?
A. 97.1

Q. Which growth value belongs to COc1cc(/C=C2\C(=O)Nc3ccccc32)ccc1OCc1ccc(F)cc1 ?
A. 97.3

Q. Which growth value belongs to COc1cc2nc(Cl)nc(Nc3cccc(C4=Nc5c(N)nc(N)nc5NC(c5ccc(F)cc5)C4)c3)c2cc1OC (stereo unspecified) ?
A. -53.6

Q. Which growth value belongs to CCN1CCN(C(=O)[C@]23CCC(C)(C)C[C@H]2C2=CC[C@@H]4[C@@]5(C)Cc6c([nH]c7ccccc67)C(C)(C)[C@@H]5CC[C@@]4(C)[C@]2(C)CC3)CC1 ?
A. 76

Q. Which growth value belongs to C#CC(=O)N(c1ccc(OC)cc1OC)C(C(=O)NCC(=O)OCC)c1cccs1 (stereo unspecified) ?
A. -78.8

Q. Which growth value belongs to NC(N)=Nc1ccc(Nc2cccc(Oc3ccc(Cl)c(C(F)(F)F)c3)c2)cn1 ?
A. -97.2

Q. Which growth value belongs to CCO/C=N/C1=C(C#N)C(c2ccc(OC)cc2)c2sc3c(CC)cccc3c2O1 (stereo unspecified) ?
A. 26

Q. Which growth value belongs to N#Cc1c(Nc2ccccc2)nn2c(-c3ccc([N+](=O)[O-])cc3)ccnc12 ?
A. 93.7

Q. Which growth value belongs to COc1cc2c(cc1OC)C(Sc1ccc(F)cc1)c1c(nc(N)c(C#N)c1N)O2 (stereo unspecified) ?
A. -91.1

Q. Which growth value belongs to COc1cccc(C(=O)Nc2cccc(C#Cc3cccc4[nH]nc(N)c34)c2)c1 ?
A. 37

Q. Which growth value belongs to CC(C)C[C@@H]1N[C@@]2(C(=O)Nc3ccccc32)[C@@H](c2ccc(F)cc2)[C@@H]1C(=O)c1ccc(O)cc1 ?
A. 92.4

Q. Which growth value belongs to NS(=O)(=O)c1ccc(Nc2cc(-c3ccccc3)nc(SCC(=O)c3ccccc3)n2)cc1 ?
A. 97.8

Q. Which growth value belongs to NC(=O)c1c(NC(=O)c2ccccc2C(F)(F)F)sc2c1CCC(=O)C2 ?
A. 19.7

Q. Which growth value belongs to COc1ccc(COc2ccc(/C=C3\C(=O)Nc4ccccc43)cc2OC)cc1 ?
A. 96.6

Q. Which growth value belongs to COc1cc(C2N=C(NNc3ccccc3)NC(C)=C2C(C)=O)ccc1O (stereo unspecified) ?
A. 66.3

Q. Which growth value belongs to O=C1Nc2ccccc2/C1=C/c1ccc(CO)n1-c1ccc(Cl)cc1 ?
A. 43.5

Q. Which growth value belongs to CS(=O)(=O)c1ccc(-n2cc(/C=N/O)c(-c3ccccc3)n2)cc1 ?
A. -79.5

Q. Which growth value belongs to COC(=O)c1ccc(NC2=C/C(=N/S(=O)(=O)c3ccc(C(=O)O)cc3)c3ccccc3C2=O)cc1 ?
A. -65

Q. Which growth value belongs to Cc1ccc(CSc2nc(-c3ccc(Cl)cc3)c(C#N)c(N3CCOCC3)n2)cc1 ?
A. 96.6

Q. Which growth value belongs to Cc1[nH]c(C(=O)Nc2ccccc2OCc2cccc(C(=O)N3CCC[C@@H](N)C3)c2)c(Cl)c1Cl ?
A. -90

Q. Which growth value belongs to COc1cc(-c2nc(SCCC(C)C)nc(NNC(=O)c3ccncc3)c2C#N)cc(OC)c1OC ?
A. 53.4

Q. Which growth value belongs to c1cn2c(ccc3nc(-c4cn[nH]c4)c4c(c32)CCCC4)n1 ?
A. 79

Q. Which growth value belongs to Fc1ccc(-c2cc3nc(C(Cl)Cl)nc(-c4ccc(F)cc4)n3n2)cc1 ?
A. 55.7

Q. Which growth value belongs to CCNC(=O)N1CCc2cc(OC)c(OCCc3ccc(OC)c(N)c3)cc2C1c1cc(C)c(C)cc1C (stereo unspecified) ?
A. 7.03

Q. Which growth value belongs to CCN(CC)c1ccc2c(c1)Oc1nc(N)c(C#N)c(N)c1C2Sc1ccc(C)cc1 (stereo unspecified) ?
A. -92.2

Q. Which growth value belongs to CCNC(=O)N1CCc2cc(OC)c(OCCc3ccc(OC)c(N)c3)cc2C1c1ccc(C)cc1C (stereo unspecified) ?
A. 6.47

Q. Which growth value belongs to COC(=O)C[Se]C(=O)Cc1c(C)n(C(=O)c2ccc(Cl)cc2)c2ccc(OC)cc12 ?
A. -54.9

Q. Which growth value belongs to COc1ccc(Cn2cc3c(c2-c2cc(OC)c(OC)c(OC)c2)CCc2c(CN4CCCC4)noc2-3)cc1 ?
A. 34.6

Q. Which growth value belongs to CC(=O)Nc1cccc(Nc2nc(N[C@H](C)c3ccccc3)c3ccccc3n2)c1 ?
A. 45.6
